- study system: immobilized L-glutamic acid oxidase (Streptomyces sp)
- Construct: from the cultured product of an actinomycete newly isolated from a soil sample; made in house; host or cells: cultured product of the natural (non-recombinant) actinomycete strain; immobilized on a Cellophane membrane with glutaraldehyde
- Sequence (Q8L3C7 15-390 limits assumed): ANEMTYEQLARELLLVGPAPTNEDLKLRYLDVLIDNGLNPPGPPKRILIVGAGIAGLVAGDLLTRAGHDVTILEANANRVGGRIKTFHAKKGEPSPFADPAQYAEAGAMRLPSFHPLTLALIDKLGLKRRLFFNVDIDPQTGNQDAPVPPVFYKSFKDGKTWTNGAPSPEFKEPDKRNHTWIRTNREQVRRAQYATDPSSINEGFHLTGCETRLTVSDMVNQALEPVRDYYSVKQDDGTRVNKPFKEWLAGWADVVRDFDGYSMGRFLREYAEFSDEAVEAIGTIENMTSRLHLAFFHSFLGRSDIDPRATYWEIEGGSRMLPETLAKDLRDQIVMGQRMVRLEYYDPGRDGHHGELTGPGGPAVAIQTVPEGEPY
- Sequence (Q8L3C7 391-520 limits assumed): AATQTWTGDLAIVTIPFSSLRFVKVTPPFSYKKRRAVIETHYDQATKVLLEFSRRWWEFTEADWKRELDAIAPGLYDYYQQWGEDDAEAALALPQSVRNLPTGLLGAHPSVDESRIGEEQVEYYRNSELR
- Sequence (Q8L3C7 521-701 limits assumed): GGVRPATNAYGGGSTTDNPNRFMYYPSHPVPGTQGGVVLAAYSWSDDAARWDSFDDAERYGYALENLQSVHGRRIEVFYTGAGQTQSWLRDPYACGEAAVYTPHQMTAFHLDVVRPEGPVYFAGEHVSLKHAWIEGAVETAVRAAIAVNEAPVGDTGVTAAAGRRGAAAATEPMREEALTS
- assay details: Responses of the L-glutamic acid sensor of Example C1 to various amino acids
- Assay type: biochemical, Streptomyces sp. X-119-6
- study conditions: pH 5.5; read-out: Relative response (%)
readout name: activity at 2000 µM

Reference set, count: 4
// returns reported activity at 2000 µM for input C[C@@H](O)[C@H](N)C(=O)O
< 0.1%

// returns reported activity at 2000 µM for input N[C@@H](Cc1ccccc1)C(=O)O
< 0.1%

// returns reported activity at 2000 µM for input N[C@@H](CCC(=O)O)C(=O)O
100%

// returns reported activity at 2000 µM for input N[C@@H](Cc1c[nH]cn1)C(=O)O
< 0.1%

Others:
// returns reported activity at 2000 µM for input N[C@H](CCC(=O)O)C(=O)O
< 0.1%

// returns reported activity at 2000 µM for input NC(=O)C[C@H](N)C(=O)O
< 1%
